// provenance: paper PMC12075686

Biological target: Transportin 3 (TNPO3) C511A mutant (human) (UniProt Q9Y5L0)
Sequence (Q9Y5L0 whole entry C511A): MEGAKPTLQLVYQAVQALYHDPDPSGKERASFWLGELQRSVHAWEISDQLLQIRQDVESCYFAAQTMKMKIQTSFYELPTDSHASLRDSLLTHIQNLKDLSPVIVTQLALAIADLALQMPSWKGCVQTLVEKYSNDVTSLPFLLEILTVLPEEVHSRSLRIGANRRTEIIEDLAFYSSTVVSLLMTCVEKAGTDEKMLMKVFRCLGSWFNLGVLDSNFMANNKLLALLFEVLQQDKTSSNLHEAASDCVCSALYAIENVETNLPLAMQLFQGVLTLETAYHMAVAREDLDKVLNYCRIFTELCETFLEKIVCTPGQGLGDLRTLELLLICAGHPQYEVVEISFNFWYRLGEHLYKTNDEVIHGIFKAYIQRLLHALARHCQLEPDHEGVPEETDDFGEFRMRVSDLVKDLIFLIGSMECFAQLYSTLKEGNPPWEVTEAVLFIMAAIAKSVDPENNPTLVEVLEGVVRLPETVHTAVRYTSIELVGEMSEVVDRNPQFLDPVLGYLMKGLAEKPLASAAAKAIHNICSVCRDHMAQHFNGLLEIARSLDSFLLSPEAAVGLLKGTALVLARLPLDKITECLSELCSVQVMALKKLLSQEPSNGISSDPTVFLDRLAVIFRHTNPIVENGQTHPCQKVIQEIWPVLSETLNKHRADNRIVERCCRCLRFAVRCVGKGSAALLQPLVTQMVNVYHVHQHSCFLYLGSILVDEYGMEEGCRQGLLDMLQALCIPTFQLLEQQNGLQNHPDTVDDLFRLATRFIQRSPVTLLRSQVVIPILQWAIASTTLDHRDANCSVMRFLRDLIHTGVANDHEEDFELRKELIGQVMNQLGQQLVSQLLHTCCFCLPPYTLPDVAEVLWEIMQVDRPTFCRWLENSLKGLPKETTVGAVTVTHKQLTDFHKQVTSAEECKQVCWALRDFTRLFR
Assay: ITC; 100 µM ligand in the syringe injected (28 x 10 µL) into 10 µM TNPO3 (WT or C511A) in the cell; 25 °C; 50 mM Tris-HCl pH 7.5, 150 mM NaCl, 2 mM TCEP, 0.04% NaN3
Measurement Kind: Kd (µM)
// note: answer is a bare numeric in µM

What measured Kd goes with GGSYRDSYDSYATHNE (also called mCIRBP^RSY; source: synthetic peptide (Peptide Specialty Laboratories GmbH)) [CIRBP (157-172) synthetic peptide, wild type] ?
5.78
